// provenance: patent US20250074873A1

Target: 5-HT2C receptor (Homo sapiens, UniProt P28335)
Construct: host or cells: HEK293
Assay: FLIPR Ca2+ flux functional assay, 5-HT2C agonist activity
Format: cell-based
Procedure: Functional Assays 5-HT2A, 5-HT2B and 5-HT2C Receptors Activity at 5-HT2A, 5-HT2B and 5-HT2C receptors was determined using a FLIPR Ca2+ flux assay at WuXi AppTec Co. Ltd. (Hong Kong) Discovery Biology Unit according to their standard protocols. […] 10 μL of references and compounds were then transferred from the compound plate into the cell plate and the fluorescent signal was read.
Readout: pEC50
Give bare numbers, as −log10 of the molar value.

Check out these entries, answers already filled in.
>>> print(df.to_string())
                                   compound                             tested_system  readout  recorded_value
0  CCN(CCc1c[nH]c2cccc(OC)c12)C(C)C [Compound P-25]  5-HT2C receptor (Homo sapiens, UniProt P28335)    pEC50            6.17
1  CCN(CCc1c[nH]c2ccccc12)CC(C)C [Compound P-22]  5-HT2C receptor (Homo sapiens, UniProt P28335)    pEC50            6.02
2  CCC(C)N(CC)CCc1c[nH]c2cccc(OC)c12 (centres unmarked) [Compound P-24]  5-HT2C receptor (Homo sapiens, UniProt P28335)    pEC50            6.02
3  CCC(C)N(C)CCc1c[nH]c2ccc(OC)cc12 (centres unmarked) [Compound P-16]  5-HT2C receptor (Homo sapiens, UniProt P28335)    pEC50            6.26

Please supply pEC50 for each of the following items, keeping them in order.
1. CCC(C)N(CC)CCc1c[nH]c2ccccc12 (centres unmarked) [Compound P-21]
2. CCC(C)N(CC)CCc1c[nH]c2cccc(O)c12 (centres unmarked) [Compound P-139]
3. CCC(C)N(CC)CCc1c[nH]c2ccc(OC)cc12 (centres unmarked) [Compound P-19]

1. 6.01
2. 5.72
3. 6.03

---

Molecular target: 5-HT2C receptor (Homo sapiens, UniProt P28335)
Construct: host or cells: HEK293
Sequence (P28335 33-458): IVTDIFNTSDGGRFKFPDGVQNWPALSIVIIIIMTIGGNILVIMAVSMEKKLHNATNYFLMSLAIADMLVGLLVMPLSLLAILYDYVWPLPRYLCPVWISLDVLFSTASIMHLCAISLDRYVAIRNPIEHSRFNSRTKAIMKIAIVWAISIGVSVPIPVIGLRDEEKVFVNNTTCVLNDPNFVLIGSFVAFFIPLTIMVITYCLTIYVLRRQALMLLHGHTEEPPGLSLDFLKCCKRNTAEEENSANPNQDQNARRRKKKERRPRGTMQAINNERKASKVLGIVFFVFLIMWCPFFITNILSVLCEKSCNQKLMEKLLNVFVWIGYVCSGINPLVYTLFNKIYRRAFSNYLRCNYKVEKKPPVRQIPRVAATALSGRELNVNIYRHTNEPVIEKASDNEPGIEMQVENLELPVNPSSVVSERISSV
Experiment: FLIPR Ca2+ flux functional assay, 5-HT2C agonist activity
Format: cell-based
Conditions: agonist activity, Ca2+ flux, stably transfected HEK293 cells
Description: Functional Assays 5-HT2A, 5-HT2B and 5-HT2C Receptors Activity at 5-HT2A, 5-HT2B and 5-HT2C receptors was determined using a FLIPR Ca2+ flux assay at WuXi AppTec Co. Ltd. (Hong Kong) Discovery Biology Unit according to their standard protocols. […] 10 μL of references and compounds were then transferred from the compound plate into the cell plate and the fluorescent signal was read.
Please respond with reported Emax for every item in the list.
Answers are plain numbers, in %.

>>> print(df.to_string())
                                   molecule  recorded_value
0  CN(C)CCc1c[nH]c2ccc(C(F)(F)F)cc12 [Compound P-15]            88.8
1  Cc1cccc2[nH]cc(CCN(C)C(C)C)c12 [Compound P-42]            91.2
2  CCC(C)N(CC)CCc1c[nH]c2cccc(OC)c12 (centres unmarked) [Compound P-24]            68.6
3  CCN(CCc1c[nH]c2ccc(OC)cc12)CC(C)C [Compound P-18]            68.9

Now look at this entry.
// query Emax value for entry CCC(C)N(C)CCc1c[nH]c2ccccc12 (centres unmarked) [Compound P-20] 58.8
